Form field: glycan array binding signal (z-score) (one value per entry).
target: Neu5Ac(a2-3)Gal(b1-4)GlcNAc(b1-3)Gal(b1-4)GlcNAc(b1-3)Gal(b1-4)GlcNAc; experiment: glycan array binding signal (z-score within array); higher = stronger binding; details: glycan notation: IUPAC condensed, linker removed
The entries come from a sample that favours the strongest signals as a whole.
Answer as a number with no unit attached.

Example cases with answers are listed next.
Binder	Quantitative readout
TbCVNHOb (Tuber borchii) (protein) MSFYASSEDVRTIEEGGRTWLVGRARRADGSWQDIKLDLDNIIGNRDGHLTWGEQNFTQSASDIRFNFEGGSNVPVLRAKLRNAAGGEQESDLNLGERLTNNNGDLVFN	-0.237
CLL-1 (Homo sapiens) (protein) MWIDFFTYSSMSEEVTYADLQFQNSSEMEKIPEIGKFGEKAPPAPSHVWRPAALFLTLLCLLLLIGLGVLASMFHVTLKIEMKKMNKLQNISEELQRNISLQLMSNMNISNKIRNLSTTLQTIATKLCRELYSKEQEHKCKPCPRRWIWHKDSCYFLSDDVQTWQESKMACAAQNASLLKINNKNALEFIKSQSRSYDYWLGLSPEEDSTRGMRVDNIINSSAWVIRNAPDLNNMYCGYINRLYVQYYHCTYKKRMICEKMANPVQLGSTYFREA	2.45
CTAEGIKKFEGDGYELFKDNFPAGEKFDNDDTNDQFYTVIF [MUB40 (Lactobacillus reuteri)]	1.72

// switching to the query binder
### Prompt Which value of glycan array binding signal (z-score) has been reported for MAA (Maackia amurensis), P0DKL3 (protein) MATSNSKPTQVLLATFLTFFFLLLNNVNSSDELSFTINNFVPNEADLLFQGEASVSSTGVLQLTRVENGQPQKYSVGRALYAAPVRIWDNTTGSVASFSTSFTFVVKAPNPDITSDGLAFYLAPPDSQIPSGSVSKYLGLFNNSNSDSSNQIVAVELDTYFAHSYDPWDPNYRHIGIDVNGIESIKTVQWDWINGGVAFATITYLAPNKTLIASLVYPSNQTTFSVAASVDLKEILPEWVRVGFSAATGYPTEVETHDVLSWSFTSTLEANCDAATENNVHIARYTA in the records?
### Response 1.27
